Reference source: patent US20240417405A1

# Lookup of reported IC50 keyed by entry
Test system: MOLM14 cells
test-protocol: Proliferation assay, spheroid-like growth, MOLM14 (MLL-AF9 rearranged)
Assay type: cell-based, human
setup-conditions: Homo sapiens, MOLM-14, 192 h, 8 days, confluence as measure of spheroid size, read-out: spheroid assay_OneTime MOLM14 IC50
I only need the number, in µM, no unit after it.

Here is how some molecules turned out for IC50.
molecule: CC(C)C(C1CCN(CC2COC2)CC1)N1CC2(CCN(c3ncnnc3Oc3ccc(F)cc3-c3cncnc3C3CC3)C2)C1 (centres unmarked) [Compound 6]
measured-parameter: IC50
recorded-measurement: 0.28
--
molecule: CNC(=O)c1ccnc(N[C@H]2C[C@@H]([C@@H](C(C)C)N3CC4(CCN(c5ncnnc5Oc5ccc(F)cc5-c5cncnc5C5CC5)C4)C3)C2)n1 (single isomer, unassigned) [Compound 452]
measured-parameter: IC50
recorded-measurement: 0.02
--
molecule: CC(C)[C@H]([C@H]1C[C@@H](N2C[C@H]3COC[C@H]3C2)C1)N1CC2(CCN(c3ncnnc3Oc3ccc(F)cc3-c3cncnc3C3CC3)C2)C1 (single isomer, unassigned) [Compound 14]
measured-parameter: IC50
recorded-measurement: 0.002

Next, consider the following molecule.
Recorded result, COC1(C(=O)N[C@H]2C[C@@H]([C@@H](C(C)C)N3CC4(CCN(c5ncnnc5Oc5ccc(F)cc5-c5cncnc5C5CC5)C4)C3)C2)CC1 (single isomer, unassigned) [Compound 330] , IC50: 0.13

====

System: MOLM14 cells
test-protocol: Proliferation assay, spheroid-like growth, MOLM14 (MLL-AF9 rearranged)
Assay type: cell-based, human
setup-conditions: Homo sapiens, MOLM-14, 192 h, 8 days, confluence as measure of spheroid size, read-out: spheroid assay_OneTime MOLM14 IC50
measured-parameter: pIC50
As a rule, pIC50 stands for the negative log10 of the concentration, concentration in M.

Here is how some compounds turned out for pIC50.
compound: COC1CN([C@H]2C[C@@H]([C@@H](C(C)C)N3CC4(CCN(c5ncnnc5Oc5ccc(F)cc5-c5cncnc5C5CC5)C4)C3)C2)CC1OC (single isomer, unassigned)
recorded-measurement: 8.40
--
compound: CC(=O)N[C@H]1C[C@@H](C(C(C)C)N2CC3(CCN(c4ncnnc4Oc4ccc(F)cc4-c4nccnc4C4CC4)C3)C2)C1 (some centres unmarked)
recorded-measurement: 7.10

Recorded result, CC(C)[C@H]([C@H]1C[C@@H](Nc2nnc(N)s2)C1)N1CC2(CCN(c3ncnnc3Oc3ccc(F)cc3-c3cncnc3C3CC3)C2)C1 (single isomer, unassigned) , pIC50: 8.40

====

System: KO-52 cells
test-protocol: Proliferation assay, spheroid-like growth, KO-52 (MLL wildtype control cell line)
Format: cell-based, human
setup-conditions: Homo sapiens, 192 h, KO-52 control cells, 8 days, confluence as measure of spheroid size; read-out: spheroid assay_OneTime KO-52 IC50
measured-parameter: IC50 (µM)
I only need the number, in µM, no unit after it.

Here is how some compounds turned out for IC50.
compound: CC(C)C([C@H]1C[C@H](N(C)C)C1)N1CC2(CCN(c3ncnnc3Oc3ccc(F)cc3-c3cncnc3C3CC3)C2)C1 (single isomer, unassigned)
IC50 (µM): 10.2
//
compound: CC(C)[C@H]([C@H]1C[C@H](N2CCC2)C1)N1CC2(CCN(c3ncnnc3Oc3ccc(F)cc3-c3cncnc3C3CC3)C2)C1 (single isomer, unassigned)
IC50 (µM): 7.4
//
compound: CC(C)[C@@H]([C@H]1C[C@@H](NC(=O)C2CC2)C1)N1CC2(CCN(c3ncnnc3Oc3ccc(F)cc3-c3cnncc3C3CC3)C2)C1 (single isomer, unassigned)
IC50 (µM): 7.05

Measured on KO-52 cells, Fc1ccc(Oc2nncnc2N2CCC3(C2)CN([C@H](C2CCN(CC4COC4)CC2)C24CC(C2)C4)C3)c(-c2cncnc2C2CC2)c1 (single isomer, unassigned) has a documented IC50 of 3.24

Measured on KO-52 cells, CC(C)[C@H]([C@H]1C[C@@H](NC(=O)C2CC2)C1)N1CC2(CCN(c3ncnnc3Oc3ccc(F)cc3-c3cccc(=O)n3C3CC3)C2)C1 (single isomer, unassigned) has a documented IC50 of 14.8

Measured on KO-52 cells, CC(C)C([C@H]1C[C@@H](N(C)C)C1)N1CC2(CCN(c3ncnnc3Oc3ccc(F)cc3-c3cncnc3C3CC3)C2)C1 (stereo partly shown) [Compound 136] has a documented IC50 of 7.07

====

Test system: MOLM14 cells
test-protocol: Proliferation assay, spheroid-like growth, MOLM14 (MLL-AF9 rearranged)
Format: cell-based, human
setup-conditions: Homo sapiens, MOLM-14, 192 h, 8 days, confluence as measure of spheroid size, read-out: spheroid assay_OneTime MOLM14 IC50
The threshold is 10 nM. Values of IC50 beneath it are tagged YES; values meeting or exceeding it are tagged NO.

molecule: CC(C)[C@H]([C@H]1C[C@@H](N2CCC(O)CC2)C1)N1CC2(CCN(c3ncnnc3Oc3ccc(F)cc3-c3cncnc3C3CC3)C2)C1 (single isomer, unassigned)
target-system: MOLM14 cells
assigned-label: YES

Lab log: compare recorded IC50 with 10 nM; is it strictly lower for CC(C)[C@H]([C@H]1C[C@H](N2C[C@H]3COC[C@H]3C2)C1)N1CC2(CCN(c3ncnnc3Oc3ccc(F)cc3-c3ncccc3C3CC3)C2)C1 (single isomer, unassigned) ?
NO

Lab log: compare recorded IC50 with 10 nM; is it strictly lower for CC(C)[C@H](C1CCN(CC2COC2)CC1)N1CC2(CCN(c3ncnnc3Oc3ccc(F)cc3-c3cnc(C#N)nc3C3CC3)C2)C1 (single isomer, unassigned) ?
NO

Lab log: compare recorded IC50 with 10 nM; is it strictly lower for CC(C)C([C@H]1C[C@@H](N(C)C)C1)N1CC2(CCN(c3ncnnc3Oc3ccc(F)cc3-c3cncnc3C3CC3)C2)C1 (some centres unmarked) [Compound 136] ?
YES

====

Tested on: MOLM14 cells
test-protocol: Proliferation assay, spheroid-like growth, MOLM14 (MLL-AF9 rearranged)
Assay type: cell-based, human
setup-conditions: Homo sapiens, MOLM-14, 192 h, 8 days, confluence as measure of spheroid size, read-out: spheroid assay_OneTime MOLM14 IC50
measured-parameter: pIC50
As a rule, pIC50 stands for the negative log10 of the concentration, concentration in M.

Here is how some compounds turned out for pIC50.
compound: CC(C)C([C@H]1C[C@H](N2CC3(COC3)C2)C1)N1CC2(CCN(c3ncnnc3Oc3ccc(F)cc3-c3cncnc3C3CC3)C2)C1 (single isomer, unassigned)
pIC50: 7.28
//
compound: C[C@@H]([C@H]1C[C@@H](N)C1)N1CC2(CCN(c3ncnnc3Oc3ccc(F)cc3-c3cncnc3C3CC3)C2)C1 (single isomer, unassigned)
pIC50: 6.17
//
compound: CC(C)[C@H]([C@H]1C[C@H](N2CCC3(CCO3)CC2)C1)N1CC2(CCN(c3ncnnc3Oc3ccc(F)cc3-c3cnncc3C3CC3)C2)C1 (single isomer, unassigned) [Compound 280b]
pIC50: 6.13

Recorded result, CC(=O)N1CC2CN([C@H]3C[C@H]([C@H](C(C)C)N4CC5(CCN(c6ncnnc6Oc6ccc(F)cc6-c6cnc(C)nc6C6CC6)C5)C4)C3)CC2C1 (stereo partly shown) , pIC50: 7.00

Recorded result, CC(C)[C@H]([C@H]1C[C@@H](N2CCC[C@@H](F)C2)C1)N1CC2(CCN(c3ncnnc3Oc3ccc(F)cc3-c3cncnc3C3CC3)C2)C1 (single isomer, unassigned) , pIC50: 8.05

Recorded result, CC(C)[C@H]([C@H]1C[C@@H](N2CCC(S(C)(=O)=O)CC2)C1)N1CC2(CCN(c3ncnnc3Oc3ccc(F)cc3-c3ncccc3C3CC3)C2)C1 (single isomer, unassigned) , pIC50: 7.07

Recorded result, CC(C)C([C@H]1C[C@@H](N2CCC(F)(F)CC2)C1)N1CC2(CCN(c3ncnnc3Oc3ccc(F)cc3-c3cncnc3C3CC3)C2)C1 (stereo partly shown) , pIC50: 6.80

Recorded result, CC(C)[C@H]([C@H]1C[C@H](N2CC3(CCO3)C2)C1)N1CC2(CCN(c3ncnnc3Oc3ccc(F)cc3-c3cnncc3C3CC3)C2)C1 (single isomer, unassigned) [Compound 84a] , pIC50: 6.07

Recorded result, CC(C)[C@@H]([C@H]1C[C@@H](N2CCC3(COC3)C2)C1)N1CC2(CCN(c3ncnnc3Oc3ccc(F)cc3-c3nnccc3C3CC3)C2)C1 (single isomer, unassigned) , pIC50: 7.80

Recorded result, CC(C)[C@H]([C@H]1C[C@@H](NC(=O)C2CC2)C1)N1CC2(CCN(c3ncnnc3Oc3ccc(F)cc3-n3ncnc3C3CC3)C2)C1 (single isomer, unassigned) , pIC50: 7.15

Recorded result, CO[C@H]1CCCN([C@H]2C[C@@H]([C@H](C(C)C)N3CC4(CCN(c5ncnnc5Oc5ccc(F)cc5-c5nnccc5C5CC5)C4)C3)C2)C1 (single isomer, unassigned) , pIC50: 8.30

Recorded result, CC(C)C([C@H]1C[C@@H](N2CC[C@@](C)(O)C2)C1)N1CC2(CCN(c3ncnnc3Oc3ccc(F)cc3-c3cnccc3C3CC3)C2)C1 (mixture of isomers) , pIC50: 8.15

Recorded result, CC(C)[C@@H]([C@H]1C[C@H](N2CC[C@@H](C(=O)N(C)C)C2)C1)N1CC2(CCN(c3ncnnc3Oc3ccc(F)cc3-c3cnncc3C3CC3)C2)C1 (single isomer, unassigned) , pIC50: 6.92

Recorded result, CC(C)[C@H]([C@H]1C[C@@H](Nc2ccnc3[nH]c(=O)ccc23)C1)N1CC2(CCN(c3ncnnc3Oc3ccc(F)cc3-c3cncnc3C3CC3)C2)C1 (single isomer, unassigned) , pIC50: 6.54

Recorded result, CC(C)[C@H](C1CC2(C1)CN(CC1COC1)C2)N1CC2(CCN(c3ncnnc3Oc3ccc(F)cc3-c3cncnc3C3CC3)C2)C1 (single isomer, unassigned) , pIC50: 6.64

Recorded result, CC1CN([C@H]2C[C@@H]([C@@H](C(C)C)N3CC4(CCN(c5ncnnc5Oc5ccc(F)cc5-c5cncnc5C5CC5)C4)C3)C2)CCC1O (single isomer, unassigned) , pIC50: 8.22

Recorded result, CC(C)[C@@H]([C@H]1C[C@@H](N2CCC(O)CC2)C1)N1CC2(CCN(c3ncnnc3Oc3ccc(F)cc3-c3cncnc3C3CC3)C2)C1 (single isomer, unassigned) , pIC50: 6.39

Recorded result, CC(C)C(C1CC(O)(c2cnn(C)c2)C1)N1CC2(CCN(c3ncnnc3Oc3ccc(F)cc3-c3cncnc3C3CC3)C2)C1 (stereo not shown) , pIC50: 6.29
